assay system: Diaphorase
protocol description: peptide array, 1 uM labeled diaphorase, no FAD
observation type: fluorescence
Reply with the value as a number alone.

// lookup fluorescence for PRYSGQYGGSG
8430

Same for RWKYQKFNGGSG
10200

Same for VLSLNQVYSEGSG
1670

Same for KHSFQKELGGSG
2090

The values you see were collected from patent US20190064177A1.
